Recorded values, source patent US20240279318A1.

Biological target: OR51B6 peptide/HLA-A*02:01 complex (recombinant) (human)
Assay: SPR

binder	binding result
AS170036 VL1VH1-VLH98T (scFv) scFv: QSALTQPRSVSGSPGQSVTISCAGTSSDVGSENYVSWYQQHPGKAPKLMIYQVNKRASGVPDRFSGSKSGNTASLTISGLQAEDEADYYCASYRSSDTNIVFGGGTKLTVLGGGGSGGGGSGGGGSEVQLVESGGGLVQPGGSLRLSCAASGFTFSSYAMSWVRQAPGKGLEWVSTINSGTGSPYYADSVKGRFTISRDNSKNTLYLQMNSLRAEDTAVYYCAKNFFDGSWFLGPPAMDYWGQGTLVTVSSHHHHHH	no binding
AS170036 VL1VH1-VHG108E (scFv) scFv: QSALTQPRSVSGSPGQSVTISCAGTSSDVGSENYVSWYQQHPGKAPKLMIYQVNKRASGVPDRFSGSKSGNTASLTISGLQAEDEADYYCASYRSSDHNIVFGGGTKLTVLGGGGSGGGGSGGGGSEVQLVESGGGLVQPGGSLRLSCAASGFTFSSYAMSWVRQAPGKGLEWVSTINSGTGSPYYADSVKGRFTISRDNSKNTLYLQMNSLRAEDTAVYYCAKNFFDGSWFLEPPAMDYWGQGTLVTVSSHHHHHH	no binding
